system: P12-Ichikawa; test: cell viability relative to DMSO control; higher = less cytotoxic; settings: RPMI 5 mM glucose + 10% FBS; 48 h; 1.71 µM
measured endpoint: cell viability (%)
Quick note: give the figure in %, leave out the unit.

INSERT INTO measurements (compound, measurement) VALUES
  ('OC1=CC=C(C=C1)C/2=C/C3=C(OC2)C=C(O)C=C3', 88.2),
  ('O=C(c1cncc(Br)c1)N1CCC(N2CCCC2)CC1', 94),
  ('CC(=O)N(C)C1(c2ccccc2)CCN(CCC[C@]2(c3ccc(Cl)c(Cl)c3)CCCN(C(=O)c3ccccc3)C2)CC1', 88.4),
  ('OC[C@H]1O[C@H](C[C@@H]1O)N2/C=C(C(=O)NC2=O)/C(F)(F)F', 107),
  ('Cc1ccc([C@@H]2O[C@H](CO)[C@@H](O)[C@H](O)[C@H]2O)cc1Cc1ccc(-c2ccc(F)cc2)s1', 126);

I'd like to know its cell viability. The compound in question is "CC[C@H]1OC(=O)[C@H](C)[C@@H](O[C@H]2C[C@@](C)(OC)[C@@H](O)[C@H](C)O2)[C@H](C)[C@@H](O[C@@H]2O[C@H](C)C[C@H](N(C)C)[C@H]2O)[C@](C)(OC)C[C@@H](C)C(=O)[C@H](C)[C@@H](O)[C@]1(C)O"
89.8

I'd like to know its cell viability. The compound in question is "CCN(CC)CCNC(=O)c1c(C)[nH]c(/C=C2\C(=O)Nc3ccc(F)cc32)c1C"
12.6

I'd like to know its cell viability. The compound in question is Cc1c(N)nc([C@H](CC(N)=O)NC[C@@H](N)C(N)=O)nc1C(=O)N[C@H](C(=O)N[C@@H](C)[C@H](O)[C@@H](C)C(=O)N[C@@H](C(=O)NCCc1nc(-c2nc(C(=O)NCCC[S+](C)C)cs2)cs1)[C@@H](C)O)C(O[C@H]1O[C@H](CO)[C@H](O)[C@@H](O)[C@H]1O[C@H]1O[C@H](CO)[C@@H](O)[C@H](OC(N)=O)[C@@H]1O)c1c[nH]cn1 (stereo partly drawn)
67.3

----------
tested on: P12-Ichikawa; experiment: cell viability relative to DMSO control; higher = less cytotoxic; conditions: HPLM + 10% dialyzed FBS; 48 h; 0.19 µM
Known cell viability of a selection of molecules
Quick note: give the figure in %, leave out the unit.

Solved entries:
INSERT INTO measurements (molecule, measurement) VALUES
  ('CO[C@H]1CCC(O[C@H]2C[C@H]([C@]3(C)CC[C@]4(C[C@H](O)[C@@H](C)[C@@H]([C@@H](C)/C=C(\C)C(=O)[C@H](C)C[C@H](C)C(=O)[O-])O4)O3)O[C@]3(O[C@@H]([C@H]4O[C@@](O)(CO)[C@H](C)C[C@@H]4C)C[C@@H]3C)[C@@H]2C)O[C@@H]1C (stereo partly specified)', 106),
  ('O=C(O)c1ccc(O)c2ncc(N3CCOCC3)cc12', 103),
  ('Cc1nc(-c2ccc(OCC(C)C)c(C#N)c2)sc1C(=O)O', 117),
  ('CC(C)C1CCC(C(=O)N[C@H](Cc2ccccc2)C(=O)O)CC1 (stereo partly specified)', 99.5),
  ('COCCn1c2c([n+](Cc3cnccn3)c1C)C(=O)c1ccccc1C2=O', 51.4),
  ('Cc1cc(Nc2ncc3c(n2)N(C)C(=O)N(c2cc(NC(=O)c4cccc(C(F)(F)F)c4)ccc2C)C3)n(C)n1', 120),
  ('O=C(O)c1cc(O)c2c(c1)C(=O)c1cccc(O)c1C2=O', 117),
  ('Cc1ccc2nc(NCCN)c3ncc(C)n3c2c1', 104);

I'd like to know its cell viability. The molecule in question is "Cc1ccc(C(=O)Nc2cccc(C(F)(F)F)c2)cc1Nc1nc(-c2cccnc2)nc2c1cnn2C"
90

I'd like to know its cell viability. The molecule in question is "COc1ccccc1[C@H](c1cccc2ccccc12)[C@@](C)(C#N)C(=O)N1CCC(c2cccc(C(F)(F)F)c2)CC1"
113

I'd like to know its cell viability. The molecule in question is "O=C1NC(=O)/C(=C/c2ccc3nccnc3c2)S1"
122

I'd like to know its cell viability. The molecule in question is "Cc1ccc([C@@H]2O[C@H](CO)[C@@H](O)[C@H](O)[C@H]2O)cc1Cc1ccc(-c2ccc(F)cc2)s1"
127

I'd like to know its cell viability. The molecule in question is "Cc1cn2cc(C(=O)N(C)CCO)cc(N[C@@H]3CCOc4cccc(C)c43)c2n1"
119

I'd like to know its cell viability. The molecule in question is "OC(=O)\C1=C\N(C2CC2)C3=CC(=C(F)C=C3C1=O)N4CCNCC4"
112

I'd like to know its cell viability. The molecule in question is C[C@]1(O)CC(C1)C2=NC(=C3[N]2C=CN=C3N)C4=CC5=C(C=C4)C=CC(=N5)C6=CC=CC=C6 (stereo unspecified)
97.7

I'd like to know its cell viability. The molecule in question is "CC[C@H]1OC(=O)[C@H](C)[C@@H](O[C@H]2C[C@@](C)(OC)[C@@H](O)[C@H](C)O2)[C@H](C)[C@@H](O[C@@H]2O[C@H](C)C[C@H](N(C)C)[C@H]2O)[C@](C)(OC)C[C@@H](C)C(=O)[C@H](C)[C@@H](O)[C@]1(C)O"
96.7

----------
tested on: SEM cells; assay: cell viability relative to DMSO control; higher = less cytotoxic; details: RPMI 5 mM glucose + 10% FBS; 48 h; 0.569 µM
Known cell viability of a selection of compounds
Quick note: give the figure in %, leave out the unit.

Solved entries:
INSERT INTO measurements (compound, scale_unit, measurement) VALUES
  ('CC(C)(N)c1ccc(-c2nc3ccccc3nc2-c2ccccc2)cc1', '%', 5.88),
  ('CCCCCCNC(=O)N1\C=C(F)/C(=O)NC1=O', '%', 112),
  ('CCC(CCCC)COC(=O)C(\C#N)=C(\c1ccccc1)c2ccccc2 (stereo unspecified)', '%', 96.2),
  ('NC(=O)c1cccc(-c2cc(Nc3ccc(OC(F)(F)F)cc3)ncn2)c1', '%', 112),
  ('Nc1ccc(C(=O)Nc2cccc(-c3nc(N4CCOCC4)c4oc5ncccc5c4n3)c2)cn1', '%', 71.7),
  ('O=C(c1cncc(Br)c1)N1CCC(N2CCCC2)CC1', '%', 117);

I'd like to know its cell viability. The compound in question is "NC(=O)N/N=C/c1ccc([N+](=O)[O-])o1"
116

I'd like to know its cell viability. The compound in question is "CNc1nc(-c2ccc3c(N)n[nH]c3c2)cc(N2C[C@@H](C(=O)NC3CCCCC3)CC[C@H]2C)n1"
82.1

I'd like to know its cell viability. The compound in question is "Cc1cn2cc(C(=O)N(C)CCO)cc(N[C@@H]3CCOc4cccc(C)c43)c2n1"
95.8

----------
system: P12-Ichikawa; assay: cell viability relative to DMSO control; higher = less cytotoxic; details: RPMI 5 mM glucose + 10% dialyzed FBS; 48 h; 0.000781 µM
Known cell viability of a selection of molecules
Quick note: give the figure in %, leave out the unit.

INSERT INTO results (molecule, scale_unit, measurement) VALUES
  ('Nc1n[nH]c2nnc(-c3c(-c4ccccc4)nn4ccccc34)cc12', '%', 113),
  ('CC1(C)SCCN([S+](=O)([O-])c2ccc(OCC#CCO)cc2)[C@H]1C(=O)NO', '%', 97),
  ('Nc1ccc(C(=O)c2cc3c(ccc4ccccc43)[nH]2)cc1', '%', 118),
  ('COc1cc(C(=O)NC2CCN(C)CC2)ccc1Nc1ncc2c(n1)N(C1CCCC1)CCC(=O)N2C(C)C', '%', 98.1),
  ('C[C@]12CCC3c4ccc(O)cc4CCC3C1CCC2=O (some centres undefined)', '%', 86.9),
  ('CN1C(=O)c2sccc2N(C)c2nc(Nc3ccc([S+](N)(=O)[O-])cc3)ncc21', '%', 98.2),
  ('CN(C)c1nc(Cc2ccc(NC(=O)c3ccc(C(F)(F)F)cc3)cc2)nc(N(C)C)c1CC(=O)O', '%', 95.7),
  ('CCN(CC)CCNC(=O)c1c(C)[nH]c(/C=C2\C(=O)Nc3ccc(F)cc32)c1C', '%', 114);

Can you look up cell viability on P12-Ichikawa for "Clc2cccc(Cl)c2\N=C1/NCCN1" ?
95.8

----------
tested on: P12-Ichikawa; test: cell viability relative to DMSO control; higher = less cytotoxic; conditions: RPMI 5 mM glucose + 10% FBS; 48 h; 46.1 µM
Known cell viability of a selection of molecules
Quick note: give the figure in %, leave out the unit.

INSERT INTO assay_data (molecule, measurement) VALUES
  ('CCCOc1ccc(C(=O)OCCN(CC)CC)cc1N', 120),
  ('CC[C@H]1OC(=O)[C@H](C)[C@@H](O[C@H]2C[C@@](C)(OC)[C@@H](O)[C@H](C)O2)[C@H](C)[C@@H](O[C@@H]2O[C@H](C)C[C@H](N(C)C)[C@H]2O)[C@](C)(OC)C[C@@H](C)C(=O)[C@H](C)[C@@H](O)[C@]1(C)O', 89.6),
  ('CN(C)C/C=C/C(=O)Nc1ccc(C(=O)Nc2cccc(Nc3ncc(Cl)c(-c4c[nH]c5ccccc45)n3)c2)cc1', 3.22);

I'd like to know its cell viability. The molecule in question is "Cc1ccc(C(=O)Nc2cccc(C(F)(F)F)c2)cc1Nc1nc(-c2cccnc2)nc2c1cnn2C"
74.5

I'd like to know its cell viability. The molecule in question is "COc1ccc(/C=C\c2cc(OC)c(OC)c(OC)c2)cc1NC(=O)[C@H](N)CO"
4.09

I'd like to know its cell viability. The molecule in question is "CC1(C)CC\C2=C(/O1)C3=C(C=CC=C3)C(=O)C2=O"
0.954

I'd like to know its cell viability. The molecule in question is "CNc1nc(-c2ccc3c(N)n[nH]c3c2)cc(N2C[C@@H](C(=O)NC3CCCCC3)CC[C@H]2C)n1"
12.8

I'd like to know its cell viability. The molecule in question is "CN1C(=O)c2sccc2N(C)c2nc(Nc3ccc([S+](N)(=O)[O-])cc3)ncc21"
6.79

I'd like to know its cell viability. The molecule in question is "COC1=CC=C(C=C1)/C2=C(O)/C(=O)C3=C(O)C=C(O)C(=C3O2)CC=C(C)C"
121
